Attribution: paper PMC7823652

# Assay details: in vitro
# Assay type: cell-based
# Test conditions: African green monkey
Experimental readout: CC50 at 24 h

For the compound CCOC(=O)c1cnn(-c2cccc3c2[nH]c(=O)n3C2CCN(C(=O)Nc3ccc(I)cc3)CC2)c1 , what CC50 at 24 h is on record? > 50 µM

----------
# System: ZIKV
# Assay details: Antiviral dose-response in ZIKV-infected U87 cells (infected cells, viral titer)
# Format: cell-based, Zika virus (strain H/PF/2013)
# Test conditions: Zika virus, U-87 MG, 48 h, ZIKV, U87, MOI 10, 48 h; read-out: Antiviral on titer (µM) IC50
Reported IC50 values for a set of molecules
# output: bare number, implied unit µM

Notebook: pull reported IC50 for ZIKV, entry NC(=O)c1ncn([C@@H]2O[C@H](CO)[C@@H](O)[C@H]2O)n1 [Ribavirin, reference compound] 31.1

Further cases:
Notebook entry, ZIKV assay: IC50 of CCOC(=O)c1cnn(-c2cccc3c2[nH]c(=O)n3C2CCN(C(=O)Nc3ccc(I)cc3)CC2)c1 = ? 9.2

----------
# Test system: U87 cells
# Assay details: Cell viability by nuclei count in ZIKV-infected U87 cells
# Type: cell-based, Human
# Test conditions: Homo sapiens, U-87 MG; U87, ZIKV MOI 1, 48 h, nuclei count; read-out: EC50 [μM] Living cells
Experimental readout: EC50

Record lookup: for U87 cells, what EC50 belongs to CCOC(=O)c1cnn(-c2cccc3c2[nH]c(=O)n3C2CCN(C(=O)Nc3ccc(I)cc3)CC2)c1 ? > 50 µM

----------
# Assay details: in vitro
# Type: cell-based
# Test conditions: African green monkey
Experimental readout: CC50 at 72 h

Need CC50 at 72 h, item CCOC(=O)c1cnn(-c2cccc3c2[nH]c(=O)n3C2CCN(C(=O)Nc3ccc(I)cc3)CC2)c1 > 50 µM

----------
# Assay details: Screen cytotoxicity by nuclei count in ZIKV-infected U87 cells
# Type: cell-based
# Test conditions: human; screen, ZIKV-infected U87 cells
Experimental readout: viability at 10 µM (%)
Numeric answer only, unit % assumed.

Which viability at 10 µM reading was recorded for the compound O=C(Nc1ccc(I)cc1)N1CCC(n2c(=O)[nH]c3cc(Cl)ccc32)CC1 [TH3289] ? 92

Field request: viability at 10 µM | item: O=C(Nc1ccc(I)cc1)N1CCC(n2c(=O)[nH]c3cc(C(F)(F)F)ccc32)CC1 [TH5264] 86

Entry CCOC(=O)c1cnn(-c2cccc3c2[nH]c(=O)n3C2CCN(C(=O)Nc3ccc(I)cc3)CC2)c1 [TH6744] has what viability at 10 µM? 105

----------
# System: ZIKV
# Assay details: Antiviral dose-response in ZIKV-infected U87 cells (infected cells, viral titer)
# Assay type: cell-based, Zika virus (strain H/PF/2013)
# Test conditions: ZIKV, U87, MOI 10, 48 h; read-out: Antiviral on titer (µM) IC50
Experimental readout: IC50 (µM)
Numeric only. Scale: µM

Look up IC50: O=C(Nc1ccc(I)cc1)N1CCC(n2c(=O)[nH]c3c(Br)cccc32)CC1 2

----------
# Tested on: Vero cells
# Assay details: Cell viability by nuclei count in ZIKV-infected Vero cells
# Type: cell-based, African Green Monkey
# Test conditions: MOI 1, 48 h
pEC50: −log10 of the molar value.
Experimental readout: pEC50

Sample CCOC(=O)c1cnn(-c2cccc3c2[nH]c(=O)n3C2CCN(C(=O)Nc3ccc(I)cc3)CC2)c1 — what was its pEC50? < 4.30

Consider the additional compound presented here.
pEC50 lookup needed for NC(=O)c1ncn([C@@H]2O[C@H](CO)[C@@H](O)[C@H]2O)n1 [Ribavirin, reference compound] , thanks. < 3.70
